Entry source: paper PMC12845261

Test system: C. albicans ATCC 10231
assay_comment: Qualitative antimicrobial activity, adapted Kirby-Bauer (inhibition zone)
Assay type: cell-based
conditions_used: 10 μL of 10 mg/mL DMSO stock, mean ± SD
quantity_name: IZD (mm)

• COc1ccc(O)c(/C=N/NC(=O)Cn2c(C)nc3ccccc3c2=O)c1 [Compound 1e] = 0.00 ± 0.00 mm
• COc1ccc(/C=N/NC(=O)Cn2c(C)nc3ccccc3c2=O)c(O)c1 [Compound 1d] = 0.00 ± 0.00 mm
• COc1cc(/C=N/NC(=O)Cn2c(C)nc3ccccc3c2=O)cc([N+](=O)[O-])c1O [Compound 1f] = 0.00 ± 0.00 mm
• COc1cccc(/C=N/NC(=O)Cn2c(C)nc3ccccc3c2=O)c1O [Compound 1c] = 6.67 ± 0.58 mm
• Cc1nc2ccccc2c(=O)n1CC(=O)N/N=C/c1cc(Br)ccc1O [Compound 1a] = 0.00 ± 0.00 mm
• Cc1nc2ccccc2c(=O)n1CC(=O)NN [Compound 2] = 6.33 ± 1.53 mm
• Cc1nc2ccccc2c(=O)n1CC(=O)N/N=C/c1cc(Br)cc(Br)c1O [Compound 1b] = 0.00 ± 0.00 mm

---

Test system: S. aureus ATCC 25923
assay_comment: Microbicidal activity (MMC)
Assay type: cell-based
conditions_used: DMSO control 5
Reported MMC by item:
quantity_name: MMC (mg/mL)

* COc1cccc(/C=N/NC(=O)Cn2c(C)nc3ccccc3c2=O)c1O | 5
* COc1cc(/C=N/NC(=O)Cn2c(C)nc3ccccc3c2=O)cc([N+](=O)[O-])c1O | 5
* COc1ccc(O)c(/C=N/NC(=O)Cn2c(C)nc3ccccc3c2=O)c1 | 5

---

// reported MIC for each item listed
System: P. aeruginosa ATCC 27853
assay_comment: Quantitative antimicrobial activity, serial binary microdilution (MIC, IC50)
Format: cell-based
conditions_used: Pseudomonas aeruginosa, ATCC27853, 24 h, 37 °C, DMSO control 1.25
quantity_name: MIC (µg/mL)

* COc1cc(/C=N/NC(=O)Cn2c(C)nc3ccccc3c2=O)cc([N+](=O)[O-])c1O [Compound 1f] | 1250
* Cc1nc2ccccc2c(=O)n1CC(=O)N/N=C/c1cc(Br)cc(Br)c1O [Compound 1b] | 5000
* COc1ccc(/C=N/NC(=O)Cn2c(C)nc3ccccc3c2=O)c(O)c1 [Compound 1d] | 1250
